Test: Standardized method for determining photostability (sun test)
Assay type: physicochemical
Details: 2 h irradiation, 5% strength by weight alcoholic solution on glass plate, 40° C.
parameter: Photostability 2 h (%)

CC(=O)C(=Cc1ccc2c(c1)C(C)(C)CCO2)C(C)=O : 84
CC(C)(C)C(=O)/C(C#N)=C/c1ccc2c(c1)C(C)(C)CCC2(C)C : 83
CCOC(=O)C(=Cc1ccc2c(c1)C(C)(C)CCC2(C)C)C(=O)OCC : 99
CCOC(=O)C(=Cc1cc2c(cc1C)C(C)(C)CCC2(C)C)C(=O)OCC : 95
CCOC(=O)C(=Cc1ccc2c(c1)C(C)(C)CCO2)C(=O)OCC : 95
CC(=C(C#N)C#N)c1ccc2c(c1)C(C)(C)CCC2 : 90
Cc1cc2c(cc1C=C(C#N)C#N)C(C)(C)CCC2(C)C : 83

----------
Test: UV absorption (absorption maximum and specific absorbance E 1/1)
Assay type: physicochemical
Details: UV absorption maximum
parameter: λmax (nm)

CC(=O)C(=Cc1ccc2c(c1)C(C)(C)CCO2)C(C)=O : 330
Cc1cc2c(cc1C=C(C#N)C#N)C(C)(C)CCC2(C)C : 336
CCOC(=O)C(=Cc1ccc2c(c1)C(C)(C)CCC2(C)C)C(=O)OCC : 294
CC(=C(C#N)C#N)c1ccc2c(c1)C(C)(C)CCC2 : 346
CCOC(=O)C(=Cc1cc2c(cc1C)C(C)(C)CCC2(C)C)C(=O)OCC : 294
CC(C)(C)C(=O)/C(C#N)=C/c1ccc2c(c1)C(C)(C)CCC2(C)C : 330
CCOC(=O)C(=Cc1ccc2c(c1)C(C)(C)CCO2)C(=O)OCC : 320

----------
Test: UV absorption (absorption maximum and specific absorbance E 1/1)
Format: physicochemical
Settings: specific absorbance at λmax
parameter: E^1/1

Illustrative cases are given below, each with its answer.
CCOC(=O)C(=Cc1cc2c(cc1C)C(C)(C)CCC2(C)C)C(=O)OCC : 594
CC(=O)C(=Cc1ccc2c(c1)C(C)(C)CCO2)C(C)=O : 801
Cc1cc2c(cc1C=C(C#N)C#N)C(C)(C)CCC2(C)C : 700
CC(=C(C#N)C#N)c1ccc2c(c1)C(C)(C)CCC2 : 694
CCOC(=O)C(=Cc1ccc2c(c1)C(C)(C)CCO2)C(=O)OCC : 616

P: CC(C)(C)C(=O)/C(C#N)=C/c1ccc2c(c1)C(C)(C)CCC2(C)C
Q: CCOC(=O)C(=Cc1ccc2c(c1)C(C)(C)CCC2(C)C)C(=O)OCC
Exercise: Could you tell me which of these two has the smaller E^1/1 figure? First: P Second: Q Please identify the chosen entry by its label.
Solution: Q
(Q: 411, P: 601)

----------
Assay: Standardized method for determining photostability (sun test)
Assay type: physicochemical
Settings: 30 min irradiation, 5% strength by weight alcoholic solution on glass plate, 40° C.
parameter: Photostability 30 min (%)

CC(=O)C(=Cc1ccc2c(c1)C(C)(C)CCO2)C(C)=O : 97
CC(C)(C)C(=O)/C(C#N)=C/c1ccc2c(c1)C(C)(C)CCC2(C)C : 86
CCOC(=O)C(=Cc1ccc2c(c1)C(C)(C)CCO2)C(=O)OCC : 100
Cc1cc2c(cc1C=C(C#N)C#N)C(C)(C)CCC2(C)C : 95
CC(=C(C#N)C#N)c1ccc2c(c1)C(C)(C)CCC2 : 96
CCOC(=O)C(=Cc1ccc2c(c1)C(C)(C)CCC2(C)C)C(=O)OCC : 100
CCOC(=O)C(=Cc1cc2c(cc1C)C(C)(C)CCC2(C)C)C(=O)OCC : 99
